# MEASUREMENT TARGET: UniProt Q969S8
# Sequence (Q969S8 whole entry, canonical isoform): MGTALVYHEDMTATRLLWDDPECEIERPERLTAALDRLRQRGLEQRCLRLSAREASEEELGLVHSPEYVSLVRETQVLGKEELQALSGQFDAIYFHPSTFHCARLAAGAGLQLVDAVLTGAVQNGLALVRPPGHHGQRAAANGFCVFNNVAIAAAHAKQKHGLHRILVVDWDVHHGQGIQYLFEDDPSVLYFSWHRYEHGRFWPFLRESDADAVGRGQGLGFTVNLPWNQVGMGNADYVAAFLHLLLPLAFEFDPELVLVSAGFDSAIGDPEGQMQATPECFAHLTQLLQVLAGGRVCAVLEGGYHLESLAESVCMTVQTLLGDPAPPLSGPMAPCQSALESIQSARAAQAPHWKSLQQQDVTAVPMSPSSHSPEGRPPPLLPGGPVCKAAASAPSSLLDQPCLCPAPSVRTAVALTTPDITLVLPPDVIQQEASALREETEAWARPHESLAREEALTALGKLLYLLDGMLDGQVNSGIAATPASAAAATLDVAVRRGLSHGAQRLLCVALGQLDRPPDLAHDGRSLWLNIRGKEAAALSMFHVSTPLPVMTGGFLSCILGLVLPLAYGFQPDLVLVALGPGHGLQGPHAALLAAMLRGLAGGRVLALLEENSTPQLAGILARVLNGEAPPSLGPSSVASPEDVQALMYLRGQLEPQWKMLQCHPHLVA
# TEST: HDAC isoform inhibition (BPS Bioscience)
ATTRIBUTE MEASURED: pIC50
Keep it numeric: pIC50 is minus log10 of the concentration in mol/L.

pIC50 lookup needed for O=C(CCCCCCn1cc(-c2ccc(O[C@H]3O[C@H](CO)[C@@H](O)[C@H](O)[C@H]3O)cc2)nn1)NO [STR-V-53] , thanks. 7.27

---

# MEASUREMENT TARGET: HDAC2 (Homo sapiens)
# Sequence (Q92769 whole entry, canonical isoform): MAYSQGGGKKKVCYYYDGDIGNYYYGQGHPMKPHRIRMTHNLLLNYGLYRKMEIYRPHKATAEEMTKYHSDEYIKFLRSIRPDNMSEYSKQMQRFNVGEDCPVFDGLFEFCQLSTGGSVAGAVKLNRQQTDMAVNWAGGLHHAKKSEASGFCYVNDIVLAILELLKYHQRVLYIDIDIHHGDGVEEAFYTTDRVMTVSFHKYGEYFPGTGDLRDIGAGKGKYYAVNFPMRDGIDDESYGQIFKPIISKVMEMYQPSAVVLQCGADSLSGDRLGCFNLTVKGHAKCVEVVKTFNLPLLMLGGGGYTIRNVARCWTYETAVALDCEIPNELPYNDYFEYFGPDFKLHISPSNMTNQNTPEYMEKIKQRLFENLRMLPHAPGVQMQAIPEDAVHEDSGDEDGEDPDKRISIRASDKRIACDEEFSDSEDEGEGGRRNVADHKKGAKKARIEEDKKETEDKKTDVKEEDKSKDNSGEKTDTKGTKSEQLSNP
# TEST: HDAC isoform inhibition (BPS Bioscience)
ATTRIBUTE MEASURED: pIC50
Note on units: pIC50 is unitless, being -log10 of a concentration expressed in mol/L.

State its pIC50 on HDAC2 (Homo sapiens): O=C(CCCCCCn1cc(-c2ccc(O[C@H]3O[C@H](CO)[C@@H](O)[C@H](O)[C@H]3O)cc2)nn1)NO [STR-V-53] 7.22

---

# MEASUREMENT TARGET: UniProt:Q9UBN7
# Sequence (Q9UBN7 1-1215): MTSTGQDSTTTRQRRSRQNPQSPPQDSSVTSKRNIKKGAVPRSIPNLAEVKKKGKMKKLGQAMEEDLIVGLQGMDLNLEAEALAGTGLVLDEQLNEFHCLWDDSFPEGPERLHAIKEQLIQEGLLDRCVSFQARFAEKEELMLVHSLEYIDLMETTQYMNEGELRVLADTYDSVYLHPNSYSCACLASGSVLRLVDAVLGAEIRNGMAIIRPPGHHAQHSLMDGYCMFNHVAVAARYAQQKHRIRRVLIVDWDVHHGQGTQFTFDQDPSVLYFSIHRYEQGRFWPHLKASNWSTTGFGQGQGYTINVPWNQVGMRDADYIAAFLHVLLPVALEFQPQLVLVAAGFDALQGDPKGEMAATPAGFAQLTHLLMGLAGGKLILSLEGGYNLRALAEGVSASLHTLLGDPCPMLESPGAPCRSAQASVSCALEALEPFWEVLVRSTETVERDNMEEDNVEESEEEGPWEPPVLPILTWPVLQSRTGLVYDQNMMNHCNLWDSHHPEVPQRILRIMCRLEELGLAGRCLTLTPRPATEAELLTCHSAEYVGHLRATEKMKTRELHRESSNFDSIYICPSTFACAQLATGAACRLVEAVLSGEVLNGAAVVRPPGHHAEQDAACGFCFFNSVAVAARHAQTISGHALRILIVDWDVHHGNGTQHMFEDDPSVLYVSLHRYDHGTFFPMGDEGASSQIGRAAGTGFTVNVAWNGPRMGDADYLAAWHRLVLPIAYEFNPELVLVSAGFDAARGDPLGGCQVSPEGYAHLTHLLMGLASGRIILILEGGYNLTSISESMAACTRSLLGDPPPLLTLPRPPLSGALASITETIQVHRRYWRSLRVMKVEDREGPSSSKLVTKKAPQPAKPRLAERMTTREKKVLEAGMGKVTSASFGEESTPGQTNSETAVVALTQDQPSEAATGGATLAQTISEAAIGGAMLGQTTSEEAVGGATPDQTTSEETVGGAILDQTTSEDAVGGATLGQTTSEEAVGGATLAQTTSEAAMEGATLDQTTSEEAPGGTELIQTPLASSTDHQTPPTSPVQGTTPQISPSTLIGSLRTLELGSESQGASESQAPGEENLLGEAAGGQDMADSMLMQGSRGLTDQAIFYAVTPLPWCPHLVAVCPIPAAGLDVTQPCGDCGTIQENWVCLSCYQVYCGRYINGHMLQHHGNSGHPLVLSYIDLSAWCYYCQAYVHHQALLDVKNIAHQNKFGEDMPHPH
# TEST: HDAC isoform inhibition (BPS Bioscience)
# EXPERIMENTAL CONTEXT: read-out: HDAC6 IC50; Table S1
Here the recorded IC50 is given for each entry.
A complete answer gives the number and then names the unit.

// below: answered compounds
COMPOUND	MEASUREMENT TARGET	RESULT
CC(=O)O[C@H]1[C@H](Oc2ccc(-c3cn(CCCCCCC(=O)NO)nn3)cc2)O[C@H](C)C[C@@H]1N(C)C	UniProt:Q9UBN7	5.22 nM
CC(=O)OCC1OC(Oc2ccc(-c3cn(CCCCCCC(=O)NO)nn3)cc2)C(OC(C)=O)C(OC(C)=O)C1OC(C)=O (stereo not drawn) [STR-V-176]	UniProt:Q9UBN7	1.05 nM

Recorded IC50 for `O=C(CCCCCCn1cc(-c2ccc3cc(O[C@@H]4O[C@H](CO)[C@@H](O)[C@H](O)[C@H]4O)ccc3c2)nn1)NO` , please? 0.72 nM
